B1: LINE1-full (parent)
chain: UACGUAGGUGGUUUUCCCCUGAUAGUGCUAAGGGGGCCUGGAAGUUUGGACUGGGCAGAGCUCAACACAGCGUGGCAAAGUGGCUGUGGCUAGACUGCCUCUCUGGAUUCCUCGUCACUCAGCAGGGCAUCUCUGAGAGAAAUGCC

Variants of: B1
procedure-summary: self-cleavage, relative activity (ratio to wild type); higher = more cleavage; in vitro, sequencing; the parent is a self-cleaving ribozyme
Decide by self-cleavage: equal to or exceeding 0.8 means YES, less means NO.

>  <mutation-key>
C110U

>  <class-label>
YES

$$$$
>  <mutation-key>
A94U A140U

>  <class-label>
NO

$$$$
>  <mutation-key>
U1C U26C

>  <class-label>
NO

$$$$
>  <mutation-key>
U109C A136U

>  <class-label>
YES

$$$$
>  <mutation-key>
G49A U81A

>  <class-label>
YES

$$$$

Prompt: For this variant, is measured self-cleavage 0.8 or higher? G54A A136G
Response: NO

Prompt: For this variant, is measured self-cleavage 0.8 or higher? U15A A30G
Response: YES

Prompt: For this variant, is measured self-cleavage 0.8 or higher? G89A U108C
Response: NO

Prompt: For this variant, is measured self-cleavage 0.8 or higher? A69G C123G
Response: YES
